- protocol_description: Plasma aspirin levels following oral aspirin
- Format: in vivo
- test_settings: human, oral aspirin 325 mg, read-out: Peak plasma aspirin level
endpoint: Cmax (ng/mL)
Answer format: numeric, ng/mL implied, no suffix.

QUERY: Give recorded Cmax. CC(=O)Oc1ccccc1C(=O)O
RESULT: 2000

----------
- protocol_description: Plasma aspirin and salicylate after dermal aspirin (NICI-GCMS), Example 4
- Type: in vivo, human
- test_settings: human, plasma, topical or ocular; dermal aspirin 750 mg, single application; read-out: Plasma aspirin, six hours
endpoint: concentration at 6 h (ng/mL)
// note: answer is a bare numeric in ng/mL

QUERY: Answer with the recorded concentration at 6 h for the compound listed here: CC(=O)Oc1ccccc1C(=O)O
RESULT: 52
